Target: FPR2 (Homo sapiens, UniProt P25090)
Construct: expressed in transfected cells; host or cells: CHO-Gα16 cells
Assay: compound-induced calcium activity on FLIPR Tetra in CHO-Gα16 cells stably expressing FPR2
Type: cell-based
Conditions: efficacy value in brackets after EC50, read-out: FPR2 Gα16-CHO (% eff)
Attribute Measured: Emax (%)

{"columns": ["Compound", "Tgt", "Attribute Measured", "Unit Abbrev", "Numeric Value"],
 "data": [
  ["CC(C)C[C@H](OC(=O)Nc1ccc(Br)cc1)C(=O)NCC(=O)OC(C)(C)C", "FPR2 (Homo sapiens, UniProt P25090)", "Emax", "%", 89],
  ["CC(C)C[C@H](OC(=O)Nc1ccc(Br)cc1)C(=O)N(CC(=O)OC(C)(C)C)C(C)C", "FPR2 (Homo sapiens, UniProt P25090)", "Emax", "%", 103],
  ["CC(C)C[C@H](OC(=O)Nc1ccc(C(F)(F)F)cc1)C(=O)N(C)Cc1nnn[nH]1", "FPR2 (Homo sapiens, UniProt P25090)", "Emax", "%", 91],
  ["CC(C)C[C@H](OC(=O)Nc1ccc(C(F)(F)F)cc1)C(=O)NCS(=O)(=O)O", "FPR2 (Homo sapiens, UniProt P25090)", "Emax", "%", 85],
  ["CC(C)C[C@H](OC(=O)Nc1ccc(C(F)(F)F)cc1)C(=O)N(CC(=O)O)C(C)C", "FPR2 (Homo sapiens, UniProt P25090)", "Emax", "%", 107],
  ["CCOP(=O)(CNC(=O)[C@H](CC(C)C)OC(=O)Nc1ccc(Br)cc1)OCC", "FPR2 (Homo sapiens, UniProt P25090)", "Emax", "%", 100],
  ["CC(C)C[C@H](OC(=O)Nc1ccc(C(F)(F)F)cc1)C(=O)O [Intermediate 4]", "FPR2 (Homo sapiens, UniProt P25090)", "Emax", "%", 88],
  ["CCCN(CC(=O)O)C(=O)[C@H](CC(C)C)OC(=O)Nc1ccc(C(F)(F)F)cc1", "FPR2 (Homo sapiens, UniProt P25090)", "Emax", "%", 102]
]}

---

Target: FPR2 (Homo sapiens)
Sequence (P25090 1-351): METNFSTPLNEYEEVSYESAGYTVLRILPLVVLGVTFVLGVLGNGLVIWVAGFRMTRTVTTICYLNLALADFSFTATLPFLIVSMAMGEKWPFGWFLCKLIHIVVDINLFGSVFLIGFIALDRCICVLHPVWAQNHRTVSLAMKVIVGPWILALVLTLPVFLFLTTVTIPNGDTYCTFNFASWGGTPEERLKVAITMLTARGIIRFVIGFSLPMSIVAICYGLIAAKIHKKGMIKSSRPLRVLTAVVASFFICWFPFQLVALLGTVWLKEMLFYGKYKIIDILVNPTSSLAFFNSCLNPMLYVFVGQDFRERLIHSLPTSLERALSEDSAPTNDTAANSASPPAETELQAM
Assay: compound-induced calcium activity on FLIPR Tetra in CHO-Gα16 cells stably expressing FPR2
Conditions: tested 0.61 to 10,000 nM
pEC50: −log10 of the molar value.
Attribute Measured: pEC50

1: CC(C)C[C@H](OC(=O)Nc1ccc(C(F)(F)F)cc1)C(=O)NCc1nnn[nH]1 [Compound 15]
2: CC(C)C[C@H](OC(=O)Nc1ccc(C(F)(F)F)cc1)C(=O)N(C)CC(=O)OC(C)(C)C [Compound 12]
3: CC(C)C[C@H](OC(=O)Nc1ccc(C(F)(F)F)cc1)C(=O)N(C)CC(=O)O [Compound 25]
4: CC(C)C[C@H](OC(=O)Nc1ccc(Br)cc1)C(=O)NCCN [Compound 39]
Qu. I'd appreciate it if you sorted the entries above by their pEC50, lowest to highest. Enter labels, ranked according to the request.
Ans. 4, 2, 1, 3
(4: 7.11, 2: 7.61, 1: 8.44, 3: 9.03)

Each recorded value in this set is attributed to patent US9926264B2.
